Molecular target: recombinant TDP2 (Homo sapiens)
Sequence (O95551 1-362): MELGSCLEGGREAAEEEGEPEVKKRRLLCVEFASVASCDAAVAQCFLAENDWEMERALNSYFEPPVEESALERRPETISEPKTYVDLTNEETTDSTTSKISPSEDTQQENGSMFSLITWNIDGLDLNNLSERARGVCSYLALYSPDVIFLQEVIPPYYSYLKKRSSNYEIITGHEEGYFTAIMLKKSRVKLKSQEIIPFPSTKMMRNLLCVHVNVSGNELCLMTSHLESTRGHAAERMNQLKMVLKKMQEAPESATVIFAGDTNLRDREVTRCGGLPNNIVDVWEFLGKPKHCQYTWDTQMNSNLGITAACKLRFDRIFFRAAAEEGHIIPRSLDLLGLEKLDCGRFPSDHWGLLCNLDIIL
Test: in vitro gel-based fluorescence TDP2 assay (counterscreen)
Assay type: biochemical
Conditions: 40 pM recombinant TDP2, 1 nM YN18 DNA substrate, 15 min, RT; read-out: TDP2 IC50
outcome-measure: IC50 (µM)
I only need the number, in µM, no unit after it.

CC1(C)[C@H](C(=O)O)N2C(=O)C[C@H]2S1(=O)=O [LB6, Sulbactam sodium] : 201
Cc1onc(-c2c(F)cccc2Cl)c1C(=O)N[C@@H]1C(=O)N2[C@@H]1SC(C)(C)[C@@H]2C(=O)O [LC11, Flucloxacillin sodium] : 36
COc1cccc2c1cc1c3c(cc4c(c32)OCO4)C(=O)N1 : 70.1
CO/N=C(\C(=O)N[C@@H]1C(=O)N2C(C(=O)O)=C(COC(C)=O)CS[C@H]12)c1csc(N)n1 : 81.7
CC(=O)OCC1=C(C(=O)O)N2C(=O)[C@@H](NC(=O)Cc3cccs3)[C@H]2SC1 [LG7, Cephalothin sodium] : 35.2

The reported value for "CC(C)(O/N=C(\C(=O)N[C@@H]1C(=O)N2C(C(=O)[O-])=C(C[n+]3ccccc3)CS[C@H]12)c1csc(N)n1)C(=O)O" in terms of IC50 is 18.9

The reported value for CC1(C)S[C@@H]2[C@H](NC(=O)Cc3ccccc3)C(=O)N2[C@H]1C(=O)O [LD8, Procaine penicillin G] in terms of IC50 is 77.4

The reported value for CC1(Cn2ccnn2)C(C(=O)O)N2C(=O)CC2S1(=O)=O (centres unmarked) in terms of IC50 is 45.5

The reported value for CC1(C)S[C@@H]2[C@H](NC(=O)[C@H](N)c3ccc(O)cc3)C(=O)N2[C@H]1C(=O)O [LB11, Amoxicillin Sodium] in terms of IC50 is 99
